Source: patent US20240239894A1

Biological target: T1, HumanB7-H4 (Homo sapiens, UniProt Q7Z7D3)
T1 construct: Human B7H4 ECD; FLAG; 10His; made in house
T1 sequence (Q7Z7D3 25-259 limits assumed): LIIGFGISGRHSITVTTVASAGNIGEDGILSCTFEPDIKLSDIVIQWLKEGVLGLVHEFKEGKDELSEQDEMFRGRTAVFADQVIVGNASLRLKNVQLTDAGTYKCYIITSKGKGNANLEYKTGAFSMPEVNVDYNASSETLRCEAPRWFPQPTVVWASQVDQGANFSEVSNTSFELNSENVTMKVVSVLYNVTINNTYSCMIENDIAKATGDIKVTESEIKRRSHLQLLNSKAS
Assay: ForteBio Octet affinity
Assay type: binding
Settings: hIgG1-TM (n = 4-7)
reported-property: kdis
Be sure to follow the number with its unit.

Form: molecule = ZY0E05-E07: anti-B7-H4 antibody clone, VH SEQ ID NO: 37, VL SEQ ID NO: 38 (antibody, V domains shown) VH: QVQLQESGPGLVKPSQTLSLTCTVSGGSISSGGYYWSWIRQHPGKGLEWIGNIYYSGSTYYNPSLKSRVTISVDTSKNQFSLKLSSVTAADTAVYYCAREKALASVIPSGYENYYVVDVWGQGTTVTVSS VL: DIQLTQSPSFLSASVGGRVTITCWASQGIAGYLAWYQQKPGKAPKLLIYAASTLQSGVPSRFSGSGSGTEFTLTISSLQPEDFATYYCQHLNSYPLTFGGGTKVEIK ; kdis = 0.000338 s⁻¹
